Where do these numbers come from? They come from patent US8609836B2.

Assayed Target: CDK4/CyclinD1 (h) (Homo sapiens)
Sequence (P11802 whole entry): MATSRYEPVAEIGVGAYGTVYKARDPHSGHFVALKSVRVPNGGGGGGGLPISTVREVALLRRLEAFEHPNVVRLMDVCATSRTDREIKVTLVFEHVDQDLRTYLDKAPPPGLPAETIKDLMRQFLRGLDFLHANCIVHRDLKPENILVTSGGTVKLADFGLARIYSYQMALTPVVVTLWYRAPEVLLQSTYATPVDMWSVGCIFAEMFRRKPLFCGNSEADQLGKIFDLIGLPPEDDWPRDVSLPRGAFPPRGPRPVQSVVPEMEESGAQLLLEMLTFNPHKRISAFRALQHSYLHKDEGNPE
Sequence (P24385 whole entry partner): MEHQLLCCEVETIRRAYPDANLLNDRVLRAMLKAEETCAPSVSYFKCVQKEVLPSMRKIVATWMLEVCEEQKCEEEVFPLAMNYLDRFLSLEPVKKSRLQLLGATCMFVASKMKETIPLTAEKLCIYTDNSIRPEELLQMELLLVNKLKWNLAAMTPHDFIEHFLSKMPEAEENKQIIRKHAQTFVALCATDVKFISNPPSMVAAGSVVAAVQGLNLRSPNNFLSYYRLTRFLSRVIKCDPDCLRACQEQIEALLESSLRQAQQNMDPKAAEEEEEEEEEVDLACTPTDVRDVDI
Assay Name: CDK4/CyclinD1 human kinase inhibition, SPA with GST-pRb substrate
Type: biochemical
Conditions: read-out: CDK4 pIC50 (converted)
Answer each item with its documented IC50.

Quote IC50 reported for COc1ccc2cc1CN(C)CCCNC(=O)C1CCN(CC1)Cc1cc(cc(N3CCOCC3)c1)Nc1nccc-2n1 please.
> 10 µM

Quote IC50 reported for COc1ccc2cc1CNCCCNC(=O)C1CCN(CC1)Cc1cc(ccc1N1CCOCC1)Nc1nccc-2n1 please.
> 10 µM

Quote IC50 reported for CN1CCCNC(=O)[C@@H]2CCCN2Cc2cccc(c2)Nc2nccc(n2)-c2ccc(cc2)C1 please.
> 10 µM

Quote IC50 reported for CN(C)CCNC(=O)c1cc2cc(c1)Nc1nccc(n1)-c1cccc(c1)CNC(=O)[C@@H]1CCCN1C2 please.
1.12 µM

Quote IC50 reported for COc1cc2cc(c1)Nc1nccc(n1)-c1ccc(OC)c(c1)CN(C)CCNC(=O)CN1CCN(CC1)C2 please.
> 10 µM

Quote IC50 reported for O=C1NCc2cccc(c2)-c2ccnc(n2)Nc2cc(ccc2Cl)CN[C@H]1CO please.
> 10 µM

Quote IC50 reported for COc1ccc2cc1CN(C)CCNC(=O)[C@@H]1CCCN1Cc1cc(cc(N3CCOCC3)c1)Nc1nccc-2n1 please.
> 10 µM

Quote IC50 reported for C[C@H]1NCc2cc(ccc2N2CCOCC2)Nc2nccc(n2)-c2ccc(cc2)OCCCNC1=O please.
0.49 µM

Quote IC50 reported for COCCNCc1cc2cc(c1)Nc1nccc(n1)-c1cccc(c1)CNC(=O)[C@@H]1CCCN1C2 please.
1.26 µM

Quote IC50 reported for COc1ccc2cc1CN(C)CCCNC(=O)[C@@H]1CCCN1Cc1cc(Br)cc(c1)Nc1nccc-2n1 please.
> 10 µM

Quote IC50 reported for C[C@@H]1NCc2ccc(Cl)c(c2)Nc2nccc(n2)-c2cccc(c2)CNC1=O please.
> 10 µM

Quote IC50 reported for O=C(NC1CCOCC1)c1cc2cc(c1)Nc1nccc(n1)-c1cccc(c1)CNC(=O)[C@@H]1CCCN1C2 please.
> 10 µM

Quote IC50 reported for COc1ccc2cc1CN1CCC[C@H]1C(=O)NCCCc1ccc(cn1)-c1ccnc(n1)N2 please.
> 10 µM

Quote IC50 reported for O=C1NCc2cccc(c2)-c2ccnc(n2)Nc2ccc(N3CCOCC3)c(c2)CN2CCC[C@@H]12 please.
2.14 µM

Quote IC50 reported for CN1CCCNC(=O)CN2CCN(CC2)Cc2cccc(c2)Nc2nccc(n2)-c2ccc(cc2)C1 please.
> 10 µM

====

Answer each item with its documented IC50.
Assayed Target: PLK2 (h) (Homo sapiens)
Sequence (Q9NYY3 whole entry): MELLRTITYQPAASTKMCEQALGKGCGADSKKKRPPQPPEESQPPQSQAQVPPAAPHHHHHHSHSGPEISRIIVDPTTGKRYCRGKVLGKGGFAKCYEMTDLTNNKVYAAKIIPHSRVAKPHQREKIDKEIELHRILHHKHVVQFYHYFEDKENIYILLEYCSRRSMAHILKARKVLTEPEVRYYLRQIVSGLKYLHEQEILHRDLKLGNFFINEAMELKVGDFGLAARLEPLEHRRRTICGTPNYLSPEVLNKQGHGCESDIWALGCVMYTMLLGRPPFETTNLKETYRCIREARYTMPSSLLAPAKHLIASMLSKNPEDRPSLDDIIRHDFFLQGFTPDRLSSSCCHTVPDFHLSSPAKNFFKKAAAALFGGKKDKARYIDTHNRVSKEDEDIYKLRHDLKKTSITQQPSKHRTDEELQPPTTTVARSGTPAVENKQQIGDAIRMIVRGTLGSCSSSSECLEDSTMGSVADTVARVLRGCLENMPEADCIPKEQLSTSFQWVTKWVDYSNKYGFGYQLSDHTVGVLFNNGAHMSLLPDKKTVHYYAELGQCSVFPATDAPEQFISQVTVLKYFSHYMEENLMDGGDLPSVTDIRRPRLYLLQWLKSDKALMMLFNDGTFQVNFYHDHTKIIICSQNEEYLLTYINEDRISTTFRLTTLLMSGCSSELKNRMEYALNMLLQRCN
Assay Name: PLK2 human kinase inhibition, SPA
Format: biochemical
Conditions: read-out: PLK2 pIC50 (converted)

# return IC50 for O=C1NCc2cccc(c2)-c2ccnc(n2)Nc2ccc(N3CCOCC3)c(c2)CN2CCC1CC2 , test system: PLK2 (h) (Homo sapiens)
> 10 µM

# return IC50 for COc1ccc2cc1CN(C)CCCNC(=O)C1CCN(CC1)Cc1cccc(c1)Nc1nccc-2n1 , test system: PLK2 (h) (Homo sapiens)
> 10 µM

# return IC50 for CN1CCNC(=O)[C@@H]2CCCN2Cc2cccc(c2)Nc2nccc(n2)-c2ccc(cc2)C1 , test system: PLK2 (h) (Homo sapiens)
> 3.02 µM

# return IC50 for C[C@@H]1NCc2cc(ccc2N2CCOCC2)Nc2nccc(n2)-c2cccc(c2)CNC1=O , test system: PLK2 (h) (Homo sapiens)
> 10 µM

# return IC50 for O=C1NCCNCc2ccc(cc2)-c2ccnc(n2)Nc2ccc(N3CCOCC3)c(c2)CN[C@H]1Cc1ccccc1 , test system: PLK2 (h) (Homo sapiens)
> 10 µM

# return IC50 for COc1ccc2cc1CN(C)CCCNC(=O)[C@@H]1CCCN1Cc1cc(cc(NC(C)C)c1)Nc1nccc-2n1 , test system: PLK2 (h) (Homo sapiens)
> 10 µM

# return IC50 for COc1cc2cc(c1)Nc1nccc(n1)-c1ccc(cc1)CN(C)CCNC(=O)[C@@H]1CCCN1C2 , test system: PLK2 (h) (Homo sapiens)
> 3.02 µM

# return IC50 for O=C1CN2CCN(CC2)Cc2cc(ccc2N2CCOCC2)Nc2nccc(n2)-c2ccc(cc2)CN1 , test system: PLK2 (h) (Homo sapiens)
> 10 µM

# return IC50 for CN1CCCNC(=O)[C@@H]2CCCN2Cc2cc(cc(N3CCOCC3)c2)Nc2nccc(n2)-c2ccc(cc2)C1 , test system: PLK2 (h) (Homo sapiens)
> 10 µM

# return IC50 for O=C(NC1CCCCC1)c1ccc2cc1CN1CCC[C@H]1C(=O)NCc1cccc(c1)-c1ccnc(n1)N2 , test system: PLK2 (h) (Homo sapiens)
> 10 µM

# return IC50 for COc1ccc2cc1CN1CCC[C@H]1C(=O)NCCCc1ccc(cn1)-c1ccnc(n1)N2 , test system: PLK2 (h) (Homo sapiens)
> 10 µM

# return IC50 for COc1ccc2cc1CN(C)CCCNC(=O)C1CCN(CC1)Cc1cc(Br)cc(c1)Nc1nccc-2n1 , test system: PLK2 (h) (Homo sapiens)
> 10 µM

# return IC50 for COc1cc2cc(c1)Nc1nccc(n1)-c1ccc(OC)c(c1)CN(C)CCNC(=O)C1CCN(CC1)C2 , test system: PLK2 (h) (Homo sapiens)
> 3.02 µM

# return IC50 for O=C1NCCNCc2ccc(cc2)-c2ccnc(n2)Nc2ccc(N3CCOCC3)c(c2)CN2CCC[C@@H]12 , test system: PLK2 (h) (Homo sapiens)
> 10 µM

# return IC50 for COc1cc2cc(c1)Nc1nccc(n1)-c1ccc(OC)c(c1)CN(C)CCNC(=O)[C@@H]1CCCN1C2 , test system: PLK2 (h) (Homo sapiens)
> 3.02 µM

# return IC50 for CN1CCNC(=O)C2CCN(CC2)Cc2cccc(c2)Nc2nccc(n2)-c2ccc(cc2)C1 , test system: PLK2 (h) (Homo sapiens)
> 10 µM

# return IC50 for O=C1NCCOc2cccc(c2)-c2ccnc(n2)Nc2ccc(N3CCOCC3)c(c2)CN2CCC1CC2 , test system: PLK2 (h) (Homo sapiens)
> 10 µM

# return IC50 for C[C@H]1NCc2cc(ccc2N2CCOCC2)Nc2nccc(n2)-c2ccc(cc2)OCCCNC1=O , test system: PLK2 (h) (Homo sapiens)
> 10 µM

# return IC50 for CN1CCCNC(=O)CN2CCN(CC2)Cc2cccc(c2)Nc2nccc(n2)-c2ccc(cc2)C1 , test system: PLK2 (h) (Homo sapiens)
> 10 µM

# return IC50 for COc1ccc2cc1CNCCCNC(=O)C1CCN(CC1)Cc1cc(ccc1N1CCOCC1)Nc1nccc-2n1 , test system: PLK2 (h) (Homo sapiens)
> 10 µM

# return IC50 for CN1CCNC(=O)[C@H](CO)NCc2cccc(c2)Nc2nccc(n2)-c2ccc(cc2)C1 , test system: PLK2 (h) (Homo sapiens)
~3.02 µM

# return IC50 for CN1CCN(C)c2ccc(cn2)-c2ccnc(n2)Nc2cc(c3c(c2)OCO3)CN2CCC[C@H]2C1=O , test system: PLK2 (h) (Homo sapiens)
> 10 µM

# return IC50 for COc1cc2cc(c1OC)CNC(=O)[C@@H]1CCCN1Cc1cccc(c1)-c1ccnc(n1)N2 , test system: PLK2 (h) (Homo sapiens)
> 10 µM

# return IC50 for COc1ccc2cc1CN(C)CCCNC(=O)CN1CCN(CC1)Cc1cc(cc(NC(C)C)c1)Nc1nccc-2n1 , test system: PLK2 (h) (Homo sapiens)
> 10 µM

# return IC50 for O=C1NCc2cccc(c2)-c2ccnc(n2)Nc2cccc(c2)CN2C[C@@H](O)C[C@@H]12 , test system: PLK2 (h) (Homo sapiens)
> 10 µM

# return IC50 for O=C1NCCCOc2cccc(c2)-c2ccnc(n2)Nc2ccc(N3CCOCC3)c(c2)CN2C[C@H](O)C[C@@H]12 , test system: PLK2 (h) (Homo sapiens)
> 10 µM

# return IC50 for CC(C)(C)O[C@@H]1C[C@H]2C(=O)NCc3cccc(c3)-c3ccnc(n3)Nc3ccccc3CN2C1 , test system: PLK2 (h) (Homo sapiens)
> 10 µM

# return IC50 for COc1ccc2cc1CN(C)CCNC(=O)[C@@H]1CCCN1Cc1cc(C#N)cc(c1)Nc1nccc-2n1 , test system: PLK2 (h) (Homo sapiens)
> 10 µM

# return IC50 for COc1ccc2cc1CN(C)CCNC(=O)C1CCN(CC1)Cc1cccc(c1)Nc1nccc-2n1 , test system: PLK2 (h) (Homo sapiens)
> 10 µM

# return IC50 for COc1ccc2cc1CN(C)CCNC(=O)[C@H](CO)NCc1cc(Br)cc(c1)Nc1nccc-2n1 , test system: PLK2 (h) (Homo sapiens)
> 10 µM

====

Answer each item with its documented IC50.
Assayed Target: GSK3β (h) (Homo sapiens, UniProt P49841)
Sequence (P49841 whole entry): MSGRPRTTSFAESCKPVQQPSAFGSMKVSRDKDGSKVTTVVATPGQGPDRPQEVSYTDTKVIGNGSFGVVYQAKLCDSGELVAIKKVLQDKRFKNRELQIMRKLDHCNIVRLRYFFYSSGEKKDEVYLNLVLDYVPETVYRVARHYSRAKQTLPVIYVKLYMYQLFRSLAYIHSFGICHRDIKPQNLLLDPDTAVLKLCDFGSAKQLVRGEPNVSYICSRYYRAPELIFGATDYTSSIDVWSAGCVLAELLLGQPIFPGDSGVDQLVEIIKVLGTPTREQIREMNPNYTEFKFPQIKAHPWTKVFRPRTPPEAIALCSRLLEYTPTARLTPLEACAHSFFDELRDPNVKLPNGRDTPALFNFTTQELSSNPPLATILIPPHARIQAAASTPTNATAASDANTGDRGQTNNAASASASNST
Assay Name: GSK-3β human kinase inhibition, SPA
Type: biochemical
Conditions: read-out: GSK3b pIC50 (converted)
Kindly provide the numeric value in µM only, without the unit symbol.

# return IC50 for O=C1NCCCOc2cccc(c2)-c2ccnc(n2)Nc2ccc(N3CCOCC3)c(c2)CN2CCC1CC2 [Compound 93] , test system: GSK3β (h) (Homo sapiens, UniProt P49841)
4.68

# return IC50 for O=C1NCc2cccc(c2)-c2ccnc(n2)Nc2ccc(N3CCOCC3)c(c2)CN2C[C@@H](O)C[C@@H]12 [Compound 27] , test system: GSK3β (h) (Homo sapiens, UniProt P49841)
0.141

# return IC50 for COc1cc2cc(c1)Nc1nccc(n1)-c1ccc(OC)c(c1)CN(C)CCNC(=O)[C@H](CO)NC2 [Compound 107] , test system: GSK3β (h) (Homo sapiens, UniProt P49841)
6.31
